Here the recorded inhibition at 0.1 µM is given for each entry.
assayed-system: human PDE10A enzyme (Homo sapiens, UniProt Q9Y233)
Construct: Human PDE10A full-length gene was transfected into Sf9 or COS-7 cells; His-tag; made in house; host or cells: Sf9 or COS-7 cells
Sequence (Q9Y233 267-1055): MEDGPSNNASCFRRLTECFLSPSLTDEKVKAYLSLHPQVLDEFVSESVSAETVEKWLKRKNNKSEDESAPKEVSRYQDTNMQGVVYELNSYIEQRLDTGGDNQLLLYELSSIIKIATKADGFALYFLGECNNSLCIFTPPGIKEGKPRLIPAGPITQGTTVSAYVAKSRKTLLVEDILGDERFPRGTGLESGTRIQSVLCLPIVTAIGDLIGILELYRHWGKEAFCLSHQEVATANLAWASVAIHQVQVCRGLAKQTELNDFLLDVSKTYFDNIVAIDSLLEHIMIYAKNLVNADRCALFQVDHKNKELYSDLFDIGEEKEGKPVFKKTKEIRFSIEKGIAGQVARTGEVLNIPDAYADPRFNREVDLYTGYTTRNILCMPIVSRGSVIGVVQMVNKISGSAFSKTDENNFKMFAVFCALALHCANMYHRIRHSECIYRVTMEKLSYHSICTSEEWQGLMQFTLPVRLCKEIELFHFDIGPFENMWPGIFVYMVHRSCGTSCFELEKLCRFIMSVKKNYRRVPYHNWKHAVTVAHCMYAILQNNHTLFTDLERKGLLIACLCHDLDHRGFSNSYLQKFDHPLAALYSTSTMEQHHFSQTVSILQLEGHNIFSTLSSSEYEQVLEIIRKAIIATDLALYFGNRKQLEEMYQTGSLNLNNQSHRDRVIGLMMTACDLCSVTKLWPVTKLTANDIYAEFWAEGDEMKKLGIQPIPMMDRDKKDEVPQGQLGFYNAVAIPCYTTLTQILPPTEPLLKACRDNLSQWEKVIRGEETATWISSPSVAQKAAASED
procedure-text: PDE10A enzyme activity inhibition test (Scintillation Proximity Assay, [3H]cGMP substrate)
Type: biochemical
experimental-conditions: compound 0.1 μM; control without compound = 0%, without compound and enzyme = 100%; read-out: Inhibitory rate (%) (0.1 μM)
parameter-measured: inhibition at 0.1 µM

| molecule | measured-value |
| --- | --- |
| COCCn1c(Oc2ccc(-n3c4ncccc4n4ccnc34)cc2)nc2cccnc21 | 96% |
| CCn1nc2cccnc2c1-c1ccc(Oc2nc3ccccc3n2C)cc1 | 93% |
| Cn1c(Oc2ccc(-n3c4ncccc4n4ccnc34)cc2)nc2ccccc21 | 93% |
| COc1nn(-c2ccc(Oc3nc4ccccc4[nH]3)cc2)c2ncccc12 | 99% |
| c1ccc2[nH]c(Oc3ccc(-c4cccn5ccnc45)cc3)nc2c1 | 62% |

Cited source: patent US9029388B2
